biological target: Ba/F3 stable cells (Homo sapiens, UniProt P00533, DUP771-773, cells depend on it); construct: EC50 Ba/F3-EGFR H773-V774insNPH; other: Ba/F3-EGFR H773-V774insNPH cells, 72 h, CCK-8; experiment: EC50 assay: Ba/F3 stable cell proliferation (CCK-8, 72 h); conditions: Ba/F3-EGFR H773-V774insNPH cells
Sequence (P00533 with tags, fused parts or gaps DUP771-773): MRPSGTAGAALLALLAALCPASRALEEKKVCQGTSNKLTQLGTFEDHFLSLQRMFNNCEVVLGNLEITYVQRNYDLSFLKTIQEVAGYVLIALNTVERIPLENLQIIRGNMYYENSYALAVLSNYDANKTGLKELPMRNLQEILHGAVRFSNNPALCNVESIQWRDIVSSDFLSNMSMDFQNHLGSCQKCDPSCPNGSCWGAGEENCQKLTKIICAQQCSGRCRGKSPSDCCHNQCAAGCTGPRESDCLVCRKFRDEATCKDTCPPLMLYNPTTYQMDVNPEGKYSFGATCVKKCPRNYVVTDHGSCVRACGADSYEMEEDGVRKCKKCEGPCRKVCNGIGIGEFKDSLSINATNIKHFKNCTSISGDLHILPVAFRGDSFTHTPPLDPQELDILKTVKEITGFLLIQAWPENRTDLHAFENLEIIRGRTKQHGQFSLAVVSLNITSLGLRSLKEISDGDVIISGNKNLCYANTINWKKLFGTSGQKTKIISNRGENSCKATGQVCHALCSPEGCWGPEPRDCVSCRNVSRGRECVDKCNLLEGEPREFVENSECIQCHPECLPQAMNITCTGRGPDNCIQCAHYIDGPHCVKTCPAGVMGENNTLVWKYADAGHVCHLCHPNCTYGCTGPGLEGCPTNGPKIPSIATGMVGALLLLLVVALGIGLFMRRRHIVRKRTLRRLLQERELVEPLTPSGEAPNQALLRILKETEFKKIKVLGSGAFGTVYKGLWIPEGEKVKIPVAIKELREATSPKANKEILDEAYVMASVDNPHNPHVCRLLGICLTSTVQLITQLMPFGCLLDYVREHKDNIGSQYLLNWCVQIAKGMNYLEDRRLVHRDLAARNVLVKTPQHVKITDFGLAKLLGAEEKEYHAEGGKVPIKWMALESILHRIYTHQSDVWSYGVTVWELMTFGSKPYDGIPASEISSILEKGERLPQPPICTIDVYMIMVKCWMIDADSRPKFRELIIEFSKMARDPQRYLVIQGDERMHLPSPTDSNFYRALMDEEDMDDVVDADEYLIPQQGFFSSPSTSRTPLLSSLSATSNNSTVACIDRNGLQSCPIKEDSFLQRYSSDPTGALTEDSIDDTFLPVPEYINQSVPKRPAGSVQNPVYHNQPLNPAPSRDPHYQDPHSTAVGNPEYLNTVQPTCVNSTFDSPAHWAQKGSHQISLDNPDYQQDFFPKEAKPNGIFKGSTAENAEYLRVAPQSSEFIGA
Metric: EC50

> print(dat)
                                   compound          result
1  C=CC(=O)N1CCCC(c2ccc3ncnc(Nc4ccc(Cl)c(Cl)c4F)c3c2)C1 (stereo not shown)  200 to 1000 nM
2  C#CC(=O)N1C2CCC1CC(Oc1cc3c(Nc4ccc5ccccc5c4)ncnc3cc1OC)C2 (stereo not shown)        ≤ 200 nM
3  C=CC(=O)N1C2CCCC1CC(Oc1cc3c(Nc4ccc(Cl)c(Cl)c4F)ncnc3cc1OC)C2 (stereo not shown)        ≤ 200 nM
4  C=CC(=O)N1C2CCCC1CC(Oc1cc3c(Nc4ccc5ccccc5c4)ncnc3cc1OC)C2 (stereo not shown)        ≤ 200 nM

I'm curious: which EC50 was measured for C=CC(=O)NC1CC(Oc2cc3c(Nc4ccc(F)c(C#N)c4)ncnc3cc2OC)C1 (stereo not shown) tested on Ba/F3 stable cells (Homo sapiens, UniProt P00533, DUP771-773, cells depend on it)? > 1000 nM

I'm curious: which EC50 was measured for C=CC(=O)N1CCC(Oc2cc3c(Nc4ccc5cnccc5c4)ncnc3cc2OC)CC1 tested on Ba/F3 stable cells (Homo sapiens, UniProt P00533, DUP771-773, cells depend on it)? > 1000 nM
